Experiment: Quantitative highthroughput screen to assess conditional lethalithy of P12 Ichikawa cells grown in RPMI1640 with untreated serum (RPMI+s) (AID 1963881); note: nearly all actives have a fitted effect of over 35% in size
Conditions: ATP luminescence, 48 h; viability; series mostly up to 45.8 µM
Results filed as inconclusive are left out. The source made the active and inactive calls. Calls come from the whole dose curve; as a rule, active = well fitted cell-killing curve with a large enough effect; inconclusive = small, poorly fitted or top-dose-only effect; inactive = flat fitted curve, though single readings scatter.
Valid outcomes are listed here; reply with one: True for active, False for inactive

Qu. Identify the outcome logged in this assay for the compound shown: `C#CCN[C@@H]1CCc2ccccc21`
Ans. False

Qu. Identify the outcome logged in this assay for the compound shown: `O=C(NC1CC1)c1cccc(-c2ccc3c(NC(=O)C4CC4)n[nH]c3c2)c1`
Ans. True

Qu. Identify the outcome logged in this assay for the compound shown: `Cn1cc(C=C2C(=O)Nc3cccnc32)c2ccccc21`
Ans. True

Qu. Identify the outcome logged in this assay for the compound shown: `CC(C)[C@H](C(=O)Nc1ccc(C(=O)NO)cc1)c1ccccc1`
Ans. True

Hello, the source for this data is PubChem BioAssay (NCATS), in case you need it.
